Target: T1, recombinant human Trop-2-his protein (ACCESSION NO.: NP_002344.2, AA 1-274) (human, UniProt P09758 27-274)
T1 construct: range 27-274; also called recombinant human Trop-2 protein; recombinant human Trop-2 extracellular domain; not shown: his tag
T1 sequence (looked up): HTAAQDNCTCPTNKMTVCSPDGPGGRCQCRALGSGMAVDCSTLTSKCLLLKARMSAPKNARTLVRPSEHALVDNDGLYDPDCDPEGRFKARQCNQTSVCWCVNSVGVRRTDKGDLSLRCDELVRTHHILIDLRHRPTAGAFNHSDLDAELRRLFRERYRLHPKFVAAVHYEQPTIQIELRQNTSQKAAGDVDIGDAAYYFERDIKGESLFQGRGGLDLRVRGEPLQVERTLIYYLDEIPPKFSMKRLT
Assay: BLI, antibody on AHC sensor, Trop-2-his 60 nM
assay-metric: pKd
# pKd is unitless: minus log10 of the molar concentration; print number only

{"binder": "Sacituzumab (antibody, human IgG1, kappa, V domains shown, expressed in HEK293; also called control antibody Sacituzumab; Saituzumab) VH: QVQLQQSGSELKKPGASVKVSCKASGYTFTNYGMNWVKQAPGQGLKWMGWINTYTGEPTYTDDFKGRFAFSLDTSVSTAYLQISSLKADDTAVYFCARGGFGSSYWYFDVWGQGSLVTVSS VL: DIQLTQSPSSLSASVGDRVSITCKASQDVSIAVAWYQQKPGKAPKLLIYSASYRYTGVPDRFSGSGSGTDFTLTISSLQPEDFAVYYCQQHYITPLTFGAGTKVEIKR", "reported": 9.14}
{"binder": "h23-12-7 (antibody, human IgG1, kappa, V domains shown) VH: QVQLVQSGAEVKKPGASVKVSCKASGYTFTSYWMHWVRQAPGQGLEWMGEITPSDNYTSYNQKFKGRVTITRDTSTSTAYMELSSLRSEDTAVYYCARGQGNYVSFDYWGQGTLVTVSS VL: DIQMTQSPSSLSASVGDRVTITCRASQDISNYLNWYQQKPGKAPKLLIYYTSRLHSGVPSRFSGSGSGTDFTLTISSLQPEDFATYFCQQGYTLPPYTFGQGTKLEIKR", "reported": 8.17}

QUERY: GET /values?readout=pKd&item= h23-12-16 (antibody, human IgG1, kappa, V domains shown) VH: QVQLVQSGAEVKKPGASVKVSCKASGYTFTSYWMHWVRQAPGQGLEWMGEITPGDNYTSYNQKFKGRVTITRDTSTSTAYMELSSLRSEDTAVYYCARGHGNYVSFDYWGQGTLVTVSS VL: DIQMTQSPSSLSASVGDRVTITCRASQDISNYLNWYQQKPGKAPKLLIYYTSSLHSGVPSRFSGSGSGTDFTLTISSLQPEDFATYFCQQGYTLPPYTFGQGTKLEIKR
RESULT: 8.54
